System: A549 NSCLC
ASSAY_COMMENT: NCI tumour cell line growth inhibition, 48 h

| COMPOUND | TGI |
| --- | --- |
| CCCCCC1=C2C(c3ccc(OC)cc3)=C(N)C(c3ccc(OC)cc3)=C3NC(=O)C(C=C1)C32 (stereo not drawn) | > 100 µM |
| N#CCC1(c2ccc(Cl)cc2)NC(=O)c2ccccc21 (stereo not drawn) | > 100 µM |
| CCOC(=O)c1cc(-c2ccccc2)[nH]c1N/N=C/c1c(Cl)cccc1Cl | > 100 µM |

---

System: NCI/ADR-RES ovarian
ASSAY_COMMENT: NCI tumour cell line growth inhibition, 48 h
This listing pairs compounds with measured TGI.
READOUT_LABEL: TGI

| COMPOUND | TARGET_OF_ASSAY | TEST_RESULT |
| --- | --- | --- |
| COC(=O)c1ccc2c(C(=Nc3ccc(N(C)C(=O)CN4CCN(C)CC4)cc3)c3ccccc3)c(O)[nH]c2c1 | NCI/ADR-RES ovarian | > 100 µM |
| CNN1C(=O)c2c(C)c(C)c(C#N)c(N)c2C1=O | NCI/ADR-RES ovarian | > 100 µM |
| N#CCC1(c2ccc(Cl)cc2)NC(=O)c2ccccc21 (stereo not given) | NCI/ADR-RES ovarian | > 100 µM |
| CCn1c(O)c(C=Nc2ccccc2)s/c1=N/Nc1nc(-c2ccc(O)c(O)c2)cs1 | NCI/ADR-RES ovarian | > 100 µM |
| CC(C)[C@H](C(=O)O[C@@H]1/C=C/C(=O)O[C@@H](C)CCC/C=C/[C@@H]2C[C@H](O)C[C@H]21)N(C)C | NCI/ADR-RES ovarian | > 87.8 µM |

---

Entries and their TGI
Test system: SNB-19 CNS
ASSAY_COMMENT: NCI tumour cell line growth inhibition, 48 h

| MOLECULE | TGI |
| --- | --- |
| C#CC(O)/C=C/C(O)CCCC(O)CC#CC(O)C#CC(O)CCCC(O)/C=C/CCCCCC(=O)CCCCCCCCCCCCCC(O)C(O)C#CC(=O)O (centres undefined) | > 50 µM |
| Fc1ccc(-c2nn3c(COc4ccc(Cl)cc4Cl)nnc3s2)cc1Oc1ccccc1 | 26.1 µM |
| O=C1OCCC[C@H]2O[C@@H](COCc3ccccc3)C[C@@H]12 | > 100 µM |
| O=C(O)c1nc2ccccc2nc1NCc1ccc(F)cc1 | > 100 µM |

---

Test system: SW-620 colon
ASSAY_COMMENT: NCI tumour cell line growth inhibition, 48 h
*1 amine or outer side, *2 acyl side, *3 side chain or, on linkers, in order; H or OH if unused. Where a SMILES comes first, the peptide text is derived from it. [ ]: non-standard residue; d: D form. The star is where a group is joined. Phe(4-NO2) = N[CH](Cc1ccc([N+](=O)[O-])cc1)C(=O)O; γGlu = O=C(O)[CH](CCC(=O)[*:2])N[*:1]; Boc = CC(C)(C)OC(=O)*; NHOH = ON*

| MOLECULE | TARGET_OF_ASSAY | TGI |
| --- | --- | --- |
| Cc1cc2c(cc1Cl)N1C(=O)NS(=O)(=O)N=C1NS2(=O)=O | SW-620 colon | > 100 µM |
| COc1ccc(C(=C2C(=O)N(c3ccccc3)C(=O)C2=C(C)C)c2ccc(OC)cc2)cc1 | SW-620 colon | > 100 µM |
| CCOC(=O)CNC(=O)C(CCC(=O)NO)NC(=O)CCC(N)C(=O)O (centres undefined) (γGlu-Glu(NHOH)-Gly-OEt; configuration not given here) | SW-620 colon | > 100 µM |
| COc1cc(Cn2c(SCC(=O)Nc3ccc(Cl)cc3)nc3ccccc3c2=O)cc(OC)c1OC | SW-620 colon | > 100 µM |
| CCc1ccc(/C=C/C(=O)C2CN(CC)CCC2(O)/C=C/c2ccc(CC)cc2)cc1 (centres undefined) | SW-620 colon | 4.4 µM |
| CCSc1nnc(-c2ccccc2)nc1Cc1ccc(OC)cc1 | SW-620 colon | > 100 µM |
| Nc1nc(OCC2CCCCC2)c2[nH]cnc2n1 | SW-620 colon | > 100 µM |
| Cc1[nH]n(-c2ccccc2)c(=O)c1C(N(CCc1ccccc1)C1=NCC(C)S1)(C(F)(F)F)C(F)(F)F (centres undefined) | SW-620 colon | 95.3 µM |
| COc1ccc2c(c1)N(CCO)C1=C(C(=O)OC1)C2c1ccc(OC)c(OC)c1 (centres undefined) | SW-620 colon | > 100 µM |
| CCN1C(=O)N(CC)C2C1NN=c1s/c(=C\c3ccc(OC)cc3)c(=O)n12 (centres undefined) | SW-620 colon | > 100 µM |
| CN1CCN(c2ccc(Nc3ncc4cc5n(c4n3)C3(CCCCC3)CNC5=O)nc2)CC1 | SW-620 colon | 11.8 µM |
| CNN1C(=O)c2c(C)c(C)c(C#N)c(N)c2C1=O | SW-620 colon | > 100 µM |
| COC(=O)C1=C(\O)C[C@@]2(C)CC[C@@H](C(=O)OC)C2C/C=C\1C(=O)OC (some centres undefined) | SW-620 colon | > 100 µM |
| CC(=O)C(C=O)C(C)=O.CC(=O)CC(C)=O.CC(=O)CC(C)=O.[Ru] | SW-620 colon | 69 µM |
| COC(=O)CCC(NC(=O)OC(C)(C)C)C(=O)NC(Cc1ccc([N+](=O)[O-])cc1)C(=O)NC(CCC(=O)OC)C(=O)OC (centres undefined) (Boc-Glu(OMe)-[Phe(4-NO2)]-Glu(OMe)-OMe; configuration not given here) | SW-620 colon | > 100 µM |
| CSc1ccc(/C=C2\N=C(c3ccccc3)N(/N=C3\C(=O)Nc4ccccc43)C2=O)cc1 | SW-620 colon | > 100 µM |
| CCOC(=O)C(NC(=O)c1ccccc1)(Nc1ccc(S(=O)(=O)Nc2cc(C)nc(C)n2)cc1)C(F)(F)F (centres undefined) | SW-620 colon | > 100 µM |
| Nc1nnc2oc3ccc4ccccc4c3cc1-2 | SW-620 colon | > 100 µM |
| O=C1N=C(Nc2nc(-c3csc(NC4=NC(=O)/C(=C\c5ccc(Cl)cc5)S4)n3)cs2)S/C1=C/c1ccc(Cl)cc1 | SW-620 colon | > 50 µM |
| CNCCNc1nc2ccccc2c2c(=O)c3cccc(C)c3sc12 | SW-620 colon | 1.92 µM |
| CNCCN(C)Cc1cn[nH]c1-c1ccc(OC2CC(OCCC3CCOCC3)C2)cc1 (centres undefined) | SW-620 colon | > 100 µM |
| Nc1nc2ncn(CC(O)COC(=O)c3ccccc3)c2c(=O)[nH]1 (centres undefined) | SW-620 colon | > 100 µM |
| CCCCCCC1CC(=O)C1(Cl)Cl (centres undefined) | SW-620 colon | > 100 µM |
| CC(=O)OCC1OC(Oc2cc(C)c(O)cc2C/C=C(\C)CC/C=C(\C)C[C@@H](C=C(C)C)OC(C)=O)C(O)C(OC(C)=O)C1OC(C)=O (some centres undefined) | SW-620 colon | > 50 µM |
| O=C1C(Br)=CC2(C=C1Br)CCNc1c(O)c3c4c(c12)=NCCC=4C=N3 | SW-620 colon | 0.105 µM |
| Cc1cccc(C)c1N1C(=O)C2c3[nH]c4ccccc4c3C3CCC(C(C)(C)C)CC3C2C1=O (centres undefined) | SW-620 colon | 21 µM |
| O=C(NCCCNCCCCNCCCNC(=O)c1cc(-c2ccccc2)nc2ccccc12)c1cc(-c2ccccc2)nc2ccccc12 | SW-620 colon | 13.1 µM |
| O=c1c2cc(O)c(O)cc2oc2cc(O)c(C3OC(CO)C(O)C(O)C3O)c(O)c12 (centres undefined) | SW-620 colon | > 100 µM |
| Cc1cc(N)cc(C)c1-c1c(Br)cc(N)cc1Br | SW-620 colon | > 100 µM |

---

Items are presented alongside their recorded TGI.
Tested on: SR leukemia
ASSAY_COMMENT: NCI tumour cell line growth inhibition, 48 h

| MOLECULE | TARGET_OF_ASSAY | TGI |
| --- | --- | --- |
| CCOC(=O)Nc1cc2c(c(N)n1)N=C(c1ccc3ccccc3c1)CN2 | SR leukemia | > 100 µM |
| COc1ccc2c(c1)N(CCO)C1=C(C(=O)OC1)C2c1ccc(OC)c(OC)c1 (stereo not drawn) | SR leukemia | > 100 µM |
| N=C1C(c2nc3ccccc3s2)=C(O)CN1c1cc(Cl)cc(Cl)c1 | SR leukemia | > 100 µM |

---

Tested on: TK-10 renal
ASSAY_COMMENT: NCI tumour cell line growth inhibition, 48 h

| STRUCTURE_AS_SMILES | VALUE_UNIT | COMPARISON_SIGN | TGI |
| --- | --- | --- | --- |
| O=C1N=C(Nc2nc(-c3csc(NC4=NC(=O)/C(=C\c5ccc(Cl)cc5)S4)n3)cs2)S/C1=C/c1ccc(Cl)cc1 | µM | = | 25.6 |
| Cc1ccc(S(=O)(=O)Oc2nc3nc4ccccc4nc3nc2OS(=O)(=O)c2ccc(C)cc2)cc1 | µM | > | 100 |
| COc1ccc2nc3cc(Cl)ccc3c(Nc3cc(C(C)C)c(O)cc3C)c2c1 | µM | = | 6.65 |

The measured values listed here are drawn from PubChem BioAssay (NCI).
